Experiment: Half life by ''Cr'' assay in rhesus monkey at a dose of 5 mg/kg
Format: ADME, organism-based
Set-up: dose 5 mg/kg
Details: cercopithecidae, in vivo
experimentalReadout: half-life (h)
Numbers only, in h.

# half-life lookup, item CC(C)OC1=C(c2ccc(S(C)(=O)=O)cc2)C(C)(C)OC1=O
2

----------
Assay: Half life the of compound was determined by ''Cr'' assay in rat at a dose of 10 mg/kg
Type: ADME, organism-based
Parameters: dose 10 mg/kg
Settings: in vivo
experimentalReadout: half-life
Quote the value and follow it with the unit of measurement.

What value of half-life has been recorded for this entry: CC(C)OC1=C(c2ccc(S(C)(=O)=O)cc2)C(C)(C)OC1=O
7.1 h

----------
Assay: Half life the of compound was determined by ''Cr'' assay in squirrel monkey at a dose of 5 mg/kg
Format: ADME, organism-based
Set-up: dose 5 mg/kg
Details: in vivo
experimentalReadout: half-life (h)
Numbers only, in h.

Fill in the blank: the reported half-life of CC(C)OC1=C(c2ccc(S(C)(=O)=O)cc2)C(C)(C)OC1=O is ____.
1.4

----------
Test: Maximal concentration (Cmax) in rhesus monkey plasma at a dose of 5 mg/kg
Format: ADME, organism-based
Set-up: dose 5 mg/kg
Conditions: cercopithecidae
experimentalReadout: Cmax (nM)
One number for each entry, in nM.

Which measured Cmax value corresponds to CC(C)OC1=C(c2ccc(S(C)(=O)=O)cc2)C(C)(C)OC1=O ?
3000

----------
I'd appreciate it if you could supply pIC50 values for the items below.
Target: Prostaglandin G/H synthase 1 (Homo sapiens, UniProt P23219)
Sequence (P23219 whole entry): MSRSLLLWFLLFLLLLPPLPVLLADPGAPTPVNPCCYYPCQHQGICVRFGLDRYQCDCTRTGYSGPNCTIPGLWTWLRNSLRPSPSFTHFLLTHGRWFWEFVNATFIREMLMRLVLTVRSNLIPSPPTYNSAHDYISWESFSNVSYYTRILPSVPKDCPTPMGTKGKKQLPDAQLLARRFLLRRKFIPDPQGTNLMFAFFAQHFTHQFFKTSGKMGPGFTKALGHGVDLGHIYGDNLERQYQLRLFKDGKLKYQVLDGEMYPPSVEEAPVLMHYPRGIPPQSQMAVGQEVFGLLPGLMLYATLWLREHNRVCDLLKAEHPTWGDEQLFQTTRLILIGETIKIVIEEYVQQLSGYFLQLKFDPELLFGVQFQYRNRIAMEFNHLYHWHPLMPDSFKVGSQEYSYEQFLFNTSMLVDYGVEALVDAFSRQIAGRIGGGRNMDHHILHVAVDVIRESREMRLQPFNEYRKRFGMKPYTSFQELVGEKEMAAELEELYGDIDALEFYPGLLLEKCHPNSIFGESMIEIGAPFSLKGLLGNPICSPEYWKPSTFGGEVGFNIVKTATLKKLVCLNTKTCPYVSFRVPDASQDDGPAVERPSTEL
Assay type: tissue-based, Blood
Description: Inhibitory activity against Prostaglandin G/H synthase 1 in human whole blood
One number for each entry, as −log10 of the molar value.

| compound | pIC50 |
| --- | --- |
| CC1(C)OC(=O)C(OC2CCC2)=C1c1ccc(S(C)(=O)=O)cc1 | 4.52 |

Need pIC50 for each of these compounds.
1. CC(OC1=C(c2ccc(S(C)(=O)=O)cc2)C(C)(C)OC1=O)C1CC1 (configuration not stated)
2. CCC(CC)OC1=C(c2ccc(S(C)(=O)=O)cc2)C(C)(C)OC1=O

1: 4.44; 2: 4.41

So what does the record say about pIC50 for CCC(C)OC1=C(c2ccc(S(C)(=O)=O)cc2)C(C)(C)OC1=O (configuration not stated) ?
5.00

----------
Molecular target: Prostaglandin G/H synthase 1 (Homo sapiens)
Experiment: Inhibitory activity against Human Prostaglandin G/H synthase 1 in U937 Microsome COX-1 assay
experimentalReadout: pIC50
One number for each entry, as −log10 of the molar value.

Field: pIC50 (Prostaglandin G/H synthase 1 (Homo sapiens)). Entry: CC1(C)OC(=O)C(OCC2CC2)=C1c1ccc(S(C)(=O)=O)cc1
4.60

----------
For each entry below, report its pIC50 value.
Target: Prostaglandin G/H synthase 1 (Homo sapiens)
Format: tissue-based, Blood
pIC50: −log10 of the molar value.

Record excerpt, results attached:
| compound | result |
| --- | --- |
| CC1(C)OC(=O)C(OC2CCCC2)=C1c1ccc(S(C)(=O)=O)cc1 | < 4.00 |
| CC(C)OC1=C(c2ccc(S(C)(=O)=O)cc2)C(C)(C)OC1=O | < 4.00 |

Entry CC1(C)OC(=O)C(OCC2CC2)=C1c1ccc(S(C)(=O)=O)cc1 [FIROCOXIB] has what pIC50?
< 4.00
